test: Acute toxicity (mice)
assay conditions: mouse, in vivo, ip, read-out: Toxicity (mice) LD 50
With a cut-off of 100 mg/kg, any LD50 strictly below it is called yes; any LD50 meeting it or above is called no.

The examples below pair each entry with its known result.
>  <chemical structure>
COc1cc(OC)c(OC)c(C(=O)N[C@@H]2C[C@H]3CC[C@@H](C2)N3Cc2ccccc2)c1

>  <label class>
yes

$$$$
>  <chemical structure>
COc1cc(Br)cc(C(=O)N[C@@H]2C[C@H]3CC[C@@H](C2)N3Cc2ccccc2)c1OC

>  <label class>
no

$$$$
>  <chemical structure>
CCSc1cc(OC)c(OC)c(C(=O)N[C@@H]2C[C@H]3CC[C@@H](C2)N3Cc2ccccc2)c1

>  <label class>
yes

$$$$
>  <chemical structure>
COc1cc(N)c(Br)cc1C(=O)N[C@@H]1C[C@H]2CC[C@@H](C1)N2Cc1ccoc1

>  <label class>
no

$$$$

Criterion: LD50 strictly below 100 mg/kg. Is it met by CCOc1c(OC)cc(OC)cc1C(=O)N[C@@H]1C[C@H]2CC[C@@H](C1)N2Cc1ccccc1 ? no

Criterion: LD50 strictly below 100 mg/kg. Is it met by COc1cccc(C(=O)N[C@@H]2C[C@H]3CC[C@@H](C2)N3Cc2ccc(C#N)cc2)c1OC ? no

----------
test: Acute toxicity (mice)
assay conditions: mouse, in vivo, ip, read-out: Toxicity (mice) LD 50
With a cut-off of 100 mg/kg, any LD50 strictly below it is called criterion met; any LD50 meeting it or above is called criterion not met.

>  <chemical structure>
COc1cc(N)c(Br)cc1C(=O)N[C@@H]1C[C@H]2CC[C@@H](C1)N2Cc1ccccc1Cl

>  <label class>
criterion not met

$$$$
>  <chemical structure>
COc1c(N)cc(Br)cc1C(=O)N[C@@H]1C[C@H]2CC[C@@H](C1)N2Cc1ccccc1

>  <label class>
criterion not met

$$$$
>  <chemical structure>
COc1cccc(C(=O)N[C@@H]2C[C@H]3CC[C@@H](C2)N3Cc2cccc(F)c2)c1OC

>  <label class>
criterion not met

$$$$
>  <chemical structure>
COc1cccc(C(=O)N[C@@H]2C[C@H]3CC[C@@H](C2)N3Cc2ccc(F)cc2)c1OC

>  <label class>
criterion not met

$$$$
>  <chemical structure>
COc1cccc(C(=O)N[C@@H]2C[C@H]3CC[C@@H](C2)N3Cc2cccc(Cl)c2)c1OC

>  <label class>
criterion not met

$$$$

Criterion: LD50 strictly below 100 mg/kg. Is it met by COc1cc(C(C)=O)cc(C(=O)N[C@@H]2C[C@H]3CC[C@@H](C2)N3Cc2ccccc2)c1OC ? criterion not met

Criterion: LD50 strictly below 100 mg/kg. Is it met by CCOc1c(OC)cccc1C(=O)N[C@@H]1C[C@H]2CCC[C@@H](C1)N2Cc1ccccc1 ? criterion not met

Criterion: LD50 strictly below 100 mg/kg. Is it met by COc1cccc(C(=O)N[C@@H]2C[C@H]3CC[C@@H](C2)N3Cc2ccc(Br)cc2)c1OC ? criterion not met

Criterion: LD50 strictly below 100 mg/kg. Is it met by COc1cc(N)c(Cl)cc1C(=O)N[C@@H]1C[C@H]2CC[C@@H](C1)N2Cc1cccc(C)c1 ? criterion met

Criterion: LD50 strictly below 100 mg/kg. Is it met by COc1cc([N+](=O)[O-])cc(C(=O)N[C@@H]2C[C@H]3CC[C@@H](C2)N3Cc2ccccc2)c1OC ? criterion met
